- measured-on: CB1 receptor (Homo sapiens)
- Sequence (P21554 whole entry): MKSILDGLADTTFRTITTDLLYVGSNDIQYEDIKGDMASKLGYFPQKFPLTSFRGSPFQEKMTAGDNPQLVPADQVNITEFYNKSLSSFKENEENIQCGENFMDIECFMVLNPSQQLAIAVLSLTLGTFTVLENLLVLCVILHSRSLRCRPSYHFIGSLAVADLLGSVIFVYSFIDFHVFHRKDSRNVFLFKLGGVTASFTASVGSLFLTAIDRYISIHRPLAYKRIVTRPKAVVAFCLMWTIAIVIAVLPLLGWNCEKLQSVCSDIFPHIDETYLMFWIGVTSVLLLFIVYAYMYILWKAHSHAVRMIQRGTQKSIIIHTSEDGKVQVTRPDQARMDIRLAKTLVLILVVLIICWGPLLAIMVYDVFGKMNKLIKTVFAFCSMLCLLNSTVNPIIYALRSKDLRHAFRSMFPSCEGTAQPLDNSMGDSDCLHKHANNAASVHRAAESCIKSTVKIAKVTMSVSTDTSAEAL
- assay-procedure: DiscoveRx HitHunter cAMP XS+ assay in cAMP Hunter cell line, allosteric modulation of CP55,940 response
- Type: cell-based
- applied-conditions: Table 1; preincubation with compound, then CP55,940 challenge; 20 μM forskolin; read-out: cAMP EC50
- Description: Once it was established that the cells were healthy and growing normally, cells were passaged from flasks using cell dissociation reagent buffer and seeded into white walled clear bottom 384-well microplates for compound profiling. […] Cells were treated the following day using the protocols shown below. cAMP modulation was determined using the DiscoveRx HitHunter cAMP XS+ assay. […]
experimental-readout: EC50 (nM)
Note: unit nM is implicit; provide only the numeric part.

>  <compound>
O=C(Nc1cccc(-c2cccc(N3CCCC3)n2)c1)Nc1cccc(C(F)(F)F)c1 [Compound 10f]

>  <measured-on>
CB1 receptor (Homo sapiens)

>  <EC50 (nM)>
242

$$$$

Simply: O=C(Nc1cccc(-c2cccc(N3CCCC3)n2)c1)Nc1ccccc1F [Compound 10u] , CB1 receptor (Homo sapiens), EC50 = 330

Simply: CN(C(=O)N(C)c1cccc(-c2cccc(N3CCCC3)n2)c1)c1ccc(Cl)cc1 [Compound 28] , CB1 receptor (Homo sapiens), EC50 = 1670

Simply: O=C(Nc1ccc(Oc2ccccc2)cc1)Nc1cccc(-c2cccc(N3CCCC3)n2)c1 [Compound 10k] , CB1 receptor (Homo sapiens), EC50 = 750

Simply: O=C(Nc1cccc(-c2cccc(N3CCCC3)n2)c1)Nc1cccc2ccccc12 [Compound 10w] , CB1 receptor (Homo sapiens), EC50 = 1260

Simply: O=C(Nc1cccc(-c2cccc(N3CCCC3)n2)c1)Nc1ccc(Cl)cc1I [Compound 19a] , CB1 receptor (Homo sapiens), EC50 = 1270

Simply: O=C(Nc1ccc(I)cc1)Nc1cccc(-c2cccc(N3CCCC3)n2)c1 [Compound 10b] , CB1 receptor (Homo sapiens), EC50 = 223

Source of measurements: patent US9926275B2
